- Test system: MCF-7 breast cancer cells
- assay_name: Cell viability (MTT) assay, MCF-7
- Format: cell-based
- test_settings: 100 µM
measured_metric: Viability of Cells (% of Control)

Check out these entries, answers already filled in.
structure_smiles_string: C[C@H](CC(=O)C[C@@H](C)[C@H]1C[C@H](O)[C@@]2(C)C3=C(C(=O)C[C@]12C)[C@@]1(C)CCC(=O)C(C)(C)[C@@H]1C[C@@H]3O)C(=O)N1CCN(c2ccccc2)CC1
target_of_assay: MCF-7 breast cancer cells
result: 66.5 ± 1.4 % of Control
--
structure_smiles_string: CCN1CCN(C(=O)[C@H](C)CC(=O)C[C@@H](C)[C@H]2C[C@H](O)[C@@]3(C)C4=C(C(=O)C[C@]23C)[C@@]2(C)CCC(=O)C(C)(C)[C@@H]2C[C@@H]4O)CC1
target_of_assay: MCF-7 breast cancer cells
result: 96.2 ± 5.0 % of Control
--
structure_smiles_string: C[C@H](CC(=O)C[C@@H](C)[C@H]1C[C@H](O)[C@@]2(C)C3=C(C(=O)C[C@]12C)[C@@]1(C)CCC(=O)C(C)(C)[C@@H]1C[C@@H]3O)C(=O)Nc1ccc(Cl)cc1
target_of_assay: MCF-7 breast cancer cells
result: 108.9 ± 1.1 % of Control
--
structure_smiles_string: C[C@H](CC(=O)C[C@@H](C)[C@H]1C[C@H](O)[C@@]2(C)C3=C(C(=O)C[C@]12C)[C@@]1(C)CCC(=O)C(C)(C)[C@@H]1C[C@@H]3O)C(=O)NCCc1ccc(F)cc1
target_of_assay: MCF-7 breast cancer cells
result: 58.4 ± 5.5 % of Control
--
structure_smiles_string: C[C@H](CC(=O)C[C@@H](C)[C@H]1C[C@H](O)[C@@]2(C)C3=C(C(=O)C[C@]12C)[C@@]1(C)CCC(=O)C(C)(C)[C@@H]1C[C@@H]3O)C(=O)NCc1ccc(F)cc1
target_of_assay: MCF-7 breast cancer cells
result: 26.4 ± 1.5 % of Control

Asked: Param item = `C[C@H](CC(=O)C[C@@H](C)[C@H]1C[C@H](O)[C@@]2(C)C3=C(C(=O)C[C@]12C)[C@@]1(C)CCC(=O)C(C)(C)[C@@H]1C[C@@H]3O)C(=O)NC1Cc2ccccc2C1` ; retrieve measured Viability of Cells (% of Control).
Given back: 40.3 ± 7.8 % of Control

Asked: What do you get for `C[C@H](CC(=O)C[C@@H](C)[C@H]1C[C@H](O)[C@@]2(C)C3=C(C(=O)C[C@]12C)[C@@]1(C)CCC(=O)C(C)(C)[C@@H]1C[C@@H]3O)C(=O)NCc1cc(Cl)cc(Cl)c1` ?
Given back: 39.4 ± 5.8 % of Control

Asked: What do you get for `C[C@H](CC(=O)C[C@@H](C)[C@H]1C[C@H](O)[C@@]2(C)C3=C(C(=O)C[C@]12C)[C@@]1(C)CCC(=O)C(C)(C)[C@@H]1C[C@@H]3O)C(=O)NCc1ccc(Cl)cc1` ?
Given back: 75.1 ± 13.2 % of Control

Asked: What do you get for `Cc1ccc(CCNC(=O)[C@H](C)CC(=O)C[C@@H](C)[C@H]2C[C@H](O)[C@@]3(C)C4=C(C(=O)C[C@]23C)[C@@]2(C)CCC(=O)C(C)(C)[C@@H]2C[C@@H]4O)cc1` ?
Given back: 104.1 ± 2.2 % of Control

Asked: What do you get for `C[C@H](CC(=O)C[C@@H](C)[C@H]1C[C@H](O)[C@@]2(C)C3=C(C(=O)C[C@]12C)[C@@]1(C)CCC(=O)C(C)(C)[C@@H]1C[C@@H]3O)C(=O)N1CCN(C)CC1` ?
Given back: 102.7 ± 3.5 % of Control
